B1: ETS1 (parent)
chain: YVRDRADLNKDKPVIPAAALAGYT

Variants of: B1
PROTOCOL TEXT: protein stability index of a GFP-peptide fusion (GPS, HEK-293T) (PSI 1-6); higher = more stable;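 note: lentivirally expressed fusions sorted by FACS into six bins by GFP to DsRed ratio, PSI derived from sequencing read proportions per bin multiplied by bin number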
COND: c terminus: a fixed tail appended
RECORDED METRIC: protein stability index

query: Assign protein stability index to the following record: YVRDRADLNKDKYVIPAAALAGYT [P13Y]
result: 2.59

query: Input YVRDRADLNKDKPVIAAAALAGYT [P16A] , output reported protein stability index.
result: 3.14

These measurements were taken from the supplement of paper PMC10567573.
